FYI, the data here is from PubChem BioAssay (NCI).

- System: OVCAR-4 ovarian
- assayInfo: NCI-60 one-dose screen, 48 h (100 = growth as untreated, 0 = no growth, -100 = all killed)
- details: 10 µM
Compounds without any hit were thinned out: in the full panel of roughly 83,000, 20% have a hit.
Answer each item with its documented growth.
Answers are plain numbers, in %.

// solved cases for growth follow
compound=CC(C)C[C@H](NC(=O)CNC(=O)C[C@H]1O[C@@H]2OC3(C)CC[C@H]4[C@H](C)CC[C@@H]([C@H]1C)[C@@]24OO3)B(O)O recordedmetric=growth val=22.1
compound="CCOP(=O)(OCC)C(NC(C)=O)C(=O)SCCN (stereo not given)" recordedmetric=growth val=110
compound=O=C(NCCCCC(c1ccc(F)cc1)c1ccc(F)cc1)Nc1ccc([N+](=O)[O-])c(C(F)(F)F)c1 recordedmetric=growth val=11.5

Batch request: growth per item, same order as input.
1. COc1ccc(OC)c(/C=C/C(=O)c2nc3ccccc3n2Cc2ccc(F)cc2)c1
2. N#C[Se]CC(=O)Nc1cccc(C(F)(F)F)c1
3. COc1cc2cc(C(=O)N3C[C@@H](CCl)c4c3cc(OC(=O)N3CCN(C(=O)CCC(=O)N5CCN(C)CC5)[C@@H]5CSSC[C@@H]53)c3ccccc43)[nH]c2c(OC)c1OC

37.9
36.8
-6.42
